- Tested on: acetylcholine-induced abdominal constriction
- PROTOCOL_NOTES: animal or person
- Assay type: in vivo, mice
- CONDITION_INFO: Mus musculus, iv; read-out: Ach ED50
Threshold 4 mg/kg: ED50 strictly smaller gives Yes, otherwise No.

- CSc1ccc(C(=O)c2c(C)n(CCN3CCOCC3)c3ccccc23)cc1: No
- Cc1c(C(=O)c2cccc3ccccc23)c2ccccc2n1CCN1CCCC(O)C1 (stereo not drawn): No
- COc1ccc(C(=O)c2c(C)n(CCN3CCOCC3)c3ccccc23)cc1: No
- Cc1c(C(=O)c2ccc(Cl)cc2)c2ccccc2n1CCN1CCOCC1: No
- Cc1c(C(=O)c2ccc(NC(=O)c3ccccc3)cc2)c2ccccc2n1CCN1CCOCC1: No
- COc1ccc(C(=O)c2c(C)n(CCN3CCOCC3)c3ccccc23)c2ccccc12: Yes
- COc1ccc(C(=O)c2c(C)n(C(C)CN3CCOCC3)c3ccccc23)cc1 (stereo not drawn): Yes
- Cc1c(C(=O)c2ccc([S+](C)[O-])cc2)c2ccccc2n1CCN1CCOCC1 (stereo not drawn): No
- Cc1c(C(=O)c2csc3ccccc23)c2ccccc2n1CCN1CCOCC1: Yes
- CC(CN1CCOCC1)n1cc(C(=O)c2ccccc2)c2ccccc21 (stereo not drawn): No
- COc1ccc(C(=O)c2c(C)n(CCCN3CCOCC3)c3ccc(F)cc23)cc1.Cl: No
- Cc1c(C(=O)c2ccc(N)cc2)c2ccccc2n1CCN1CCOCC1: No
- COc1ccc(C(=O)c2c(C)n(CCN3CCCC(O)C3)c3ccccc23)cc1 (stereo not drawn): Yes
- COc1ccc(C(=O)c2c(C)n(CCN3CCOCC3)c3cc(OC)ccc23)cc1: No
- Cc1c(C(=O)c2ccccc2F)c2ccccc2n1C(C)CN1CCOCC1 (stereo not drawn): Yes
